assayed.target: CATec3 Y20F (Escherichia coli, UniProt P00484, Y20F)
Assay type: biochemical
conditions: CATec3 Y20F, 50° C., 2 mM acetyl-CoA; average±standard deviation
readout: log10 kcat (log10 of the value in s⁻¹)

compound	readout	endpoint.value
CC(C)=CCO	log10 kcat	0.43
COc1cccc(CO)c1	log10 kcat	1.27
CCCCCO	log10 kcat	0.59
CCCCCCO	log10 kcat	0.81
CC(C)=CCC/C(C)=C\CO	log10 kcat	0.34
OCc1ccco1	log10 kcat	0.04
CC(C)=CCC/C(C)=C/CO	log10 kcat	0.90
CCO	log10 kcat	-0.10
CC(C)CO	log10 kcat	0.36
CC/C=C\CCO [3-cis-Hexen-1-ol]	log10 kcat	0.36
OCCc1ccccc1	log10 kcat	0.79
O=C(N[C@H](CO)[C@H](O)c1ccc([N+](=O)[O-])cc1)C(Cl)Cl	log10 kcat	2.02
OCc1ccccc1	log10 kcat	0.20
CC(C)=CCCC(C)CCO (stereo not drawn)	log10 kcat	0.89
CC(C)CCO	log10 kcat	0.45
